- testedOn: GST tagged truncated human mutant G2019S LRRK2 (Homo sapiens (Human), UniProt Q5S007, G2019S)
- Sequence (Q5S007 970-2527 G2019S): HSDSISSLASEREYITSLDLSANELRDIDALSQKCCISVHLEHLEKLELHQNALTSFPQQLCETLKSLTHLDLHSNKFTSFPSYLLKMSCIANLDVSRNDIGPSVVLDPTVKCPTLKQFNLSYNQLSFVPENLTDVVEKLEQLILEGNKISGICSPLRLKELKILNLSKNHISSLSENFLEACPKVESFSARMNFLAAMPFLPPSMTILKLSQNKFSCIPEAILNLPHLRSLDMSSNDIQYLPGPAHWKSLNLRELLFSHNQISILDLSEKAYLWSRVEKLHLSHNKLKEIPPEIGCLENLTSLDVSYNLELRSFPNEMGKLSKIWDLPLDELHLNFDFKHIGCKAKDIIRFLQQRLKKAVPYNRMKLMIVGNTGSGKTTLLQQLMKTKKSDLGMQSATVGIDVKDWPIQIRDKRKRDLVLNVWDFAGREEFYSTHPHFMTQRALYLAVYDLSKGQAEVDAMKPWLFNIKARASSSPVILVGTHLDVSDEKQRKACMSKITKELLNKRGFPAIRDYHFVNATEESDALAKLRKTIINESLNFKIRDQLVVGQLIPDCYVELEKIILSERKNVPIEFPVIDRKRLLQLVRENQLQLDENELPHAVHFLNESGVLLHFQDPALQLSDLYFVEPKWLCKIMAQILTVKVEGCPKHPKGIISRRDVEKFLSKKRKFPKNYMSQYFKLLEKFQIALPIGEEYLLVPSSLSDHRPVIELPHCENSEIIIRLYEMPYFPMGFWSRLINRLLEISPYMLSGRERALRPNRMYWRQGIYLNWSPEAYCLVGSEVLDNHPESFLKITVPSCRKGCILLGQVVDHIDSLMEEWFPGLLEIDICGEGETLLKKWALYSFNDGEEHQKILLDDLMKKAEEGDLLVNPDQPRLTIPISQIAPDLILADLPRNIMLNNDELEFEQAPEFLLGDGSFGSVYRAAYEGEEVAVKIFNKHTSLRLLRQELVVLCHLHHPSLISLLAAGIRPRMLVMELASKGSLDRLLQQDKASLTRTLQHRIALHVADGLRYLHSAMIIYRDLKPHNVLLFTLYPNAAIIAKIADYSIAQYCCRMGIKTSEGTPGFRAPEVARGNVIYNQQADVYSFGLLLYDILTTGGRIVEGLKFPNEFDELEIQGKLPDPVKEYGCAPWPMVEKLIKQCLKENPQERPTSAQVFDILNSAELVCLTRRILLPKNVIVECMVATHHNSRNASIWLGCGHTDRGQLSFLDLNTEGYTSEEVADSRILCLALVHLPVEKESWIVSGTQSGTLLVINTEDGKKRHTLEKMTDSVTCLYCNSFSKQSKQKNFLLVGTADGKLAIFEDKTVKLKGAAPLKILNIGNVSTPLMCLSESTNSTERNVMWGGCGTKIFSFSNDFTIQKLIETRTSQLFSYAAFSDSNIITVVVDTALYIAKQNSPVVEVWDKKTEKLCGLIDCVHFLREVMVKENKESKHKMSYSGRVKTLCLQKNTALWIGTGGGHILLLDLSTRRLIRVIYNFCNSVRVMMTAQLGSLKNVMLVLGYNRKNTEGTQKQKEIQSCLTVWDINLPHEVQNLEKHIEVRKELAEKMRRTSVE
- protocolNotes: LRRK2 Km ATP LanthaScreen Assay
- Assay type: biochemical
- protocolConditions: 134 μM ATP (Km ATP), LRRKtide substrate, negative log of mean IC50 (molar)
metric: LRRK2 pIC50
Numbers only.

Example entries begin here.
[[record]]
smilesstructure = "Cn1cc(-c2cccc(C(=O)Nc3cnn(C4CCC4)c3)c2F)cn1"
metric = "LRRK2 pIC50"
observedmeasurement = 7.10

[[record]]
smilesstructure = "O=C(Nc1cnn(C2CCC2)c1)c1csc(-c2cnn3c2OCCC3)n1"
metric = "LRRK2 pIC50"
observedmeasurement = 8.08

[[record]]
smilesstructure = "COc1nn(CC2CC2)cc1NC(=O)c1csc(-c2cn[nH]c2)n1"
metric = "LRRK2 pIC50"
observedmeasurement = 7.92


Required: LRRK2 pIC50, one value per molecule below.
1. COc1nn(CC2(C#N)CC2)cc1NC(=O)c1csc(-c2cn[nH]c2)n1
2. Cn1nccc1-c1cccc(C(=O)Nc2cnn(CC3CCC3)c2)n1

1. 7.70
2. 5.07

###

- testedOn: GST tagged truncated human mutant G2019S LRRK2 (Homo sapiens (Human), UniProt Q5S007, G2019S)
- protocolNotes: LRRK2 Km ATP LanthaScreen Assay
- Assay type: biochemical
- protocolConditions: 134 μM ATP (Km ATP), LRRKtide substrate, negative log of mean IC50 (molar)
metric: LRRK2 pIC50

Example entries begin here.
[[record]]
molecule = "Cn1ccc(-c2cccc(C(=O)Nc3cnn(CC4CCC4)c3)n2)c1 [Example 9-32]"
metric = "LRRK2 pIC50"
observedmeasurement = 6.59

[[record]]
molecule = "CC(C)Oc1nn(C)cc1NC(=O)c1csc(-c2cn[nH]c2)n1 [Example 1-16]"
metric = "LRRK2 pIC50"
observedmeasurement = 7.43


Required: LRRK2 pIC50, one value per molecule below.
1. COc1nn(CC2CCOCC2)cc1NC(=O)c1csc(-c2cn[nH]c2)n1 [Example 7-16]
2. Cc1cc(-n2cc(NC(=O)c3csc(-c4cn[nH]c4)n3)cn2)ccn1 [Example 8-1]

[7.25, 7.90]

Required: LRRK2 pIC50, one value per molecule below.
1. Cn1cc(NC(=O)c2csc(-c3cn[nH]c3)n2)c(-c2ccncc2)n1 [Example 1-9]
2. O=C(Nc1cnn(CC2CCC2)c1)c1cccc(-c2cccnc2F)n1 [Example 9-24]

1: 7.09; 2: 7.16

###

- testedOn: GST tagged truncated human mutant G2019S LRRK2 (Homo sapiens (Human), UniProt Q5S007, G2019S)
- protocolNotes: LRRK2 Km ATP LanthaScreen Assay
- Format: biochemical
- protocolConditions: 134 μM ATP (Km ATP), LRRKtide substrate, negative log of mean IC50 (molar)
metric: LRRK2 pIC50
Numbers only.

[[record]]
molecule = "Cc1nn(C(C2CC2)C2CC2)cc1NC(=O)c1csc(-c2cn[nH]c2)n1 [Example 1-23]"
observedmeasurement = 6.59

[[record]]
molecule = "O=C(Nc1cnn(CC2C3CCC2CNC3)c1)c1csc(-c2cn[nH]c2)n1 (stereo not drawn) [Example 7-43]"
observedmeasurement = 6.87

[[record]]
molecule = "O=C(Nc1cnn(CC2CCC2)c1)c1csc(-c2cn[nH]c2)n1 [Example 7-1]"
observedmeasurement = 7.76

[[record]]
molecule = "COCCn1cc(NC(=O)c2csc(-c3cn[nH]c3)n2)c(C(F)F)n1 [Example 7-3]"
observedmeasurement = 7.27

[[record]]
molecule = "COCCn1cc(NC(=O)c2csc(-c3cn[nH]c3)n2)c(OC)n1 [Example 7-21]"
observedmeasurement = 6.57

[[record]]
molecule = "NCC1CCC(F)(Cn2cc(NC(=O)c3csc(-c4cn[nH]c4)n3)cn2)CC1 (stereo not drawn) [Example 7-36]"
observedmeasurement = 7.65

[[record]]
molecule = "O=C(Nc1cnn(C2CCC2)c1)c1csc(-c2cn[nH]c2)n1 [Example 1-1]"
observedmeasurement = 8.01

[[record]]
molecule = "O=C(Nc1cn(C2CCC2)nc1C1CC1)c1csc(-c2cn[nH]c2)n1 [Example 3-2]"
observedmeasurement = 8.35


Now examine the next entry.
// lookup LRRK2 pIC50 for CC(C)Cn1cc(NC(=O)c2csc(-c3cn[nH]c3)n2)c(C(F)F)n1 [Example 7-23] 7.59
